Every entry's value here was drawn from patent US20210324028A1.

# Target: T1, human IL-2Rβ (human, UniProt P14784 27-240, limits assumed)
# T1 construct: also called hIL-2Rβ; IL-2 receptor beta
# T1 sequence (looked up): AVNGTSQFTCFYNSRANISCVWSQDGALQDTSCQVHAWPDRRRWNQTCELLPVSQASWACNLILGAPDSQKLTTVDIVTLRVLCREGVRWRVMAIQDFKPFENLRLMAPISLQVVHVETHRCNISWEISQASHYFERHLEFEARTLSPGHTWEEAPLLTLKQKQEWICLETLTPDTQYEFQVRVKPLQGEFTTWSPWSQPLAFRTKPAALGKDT
# Experiment notes: SPR, steady state
Assay readout: pKd
Scale: pKd equals -log10([C]), with [C] in mol/L.

Query string: // fetch pKd given entry hIL-15 V49R/N4E (ligand) NWVEVISDLKKIEDLIQSMHIDATLYTESDVHPSCKVTAMKCFLLELQRISLESGDASIHDTVENLIILANNSLSSNGNVTESGCKECEELEEKNIKEFLQSFVHIVQMFINTGGGGSGHHHHHHHHGGGLNDIFEAQKIEWHE
Result string: 6.51

Query string: // fetch pKd given entry hIL-15 V49R/V31A (ligand) NWVNVISDLKKIEDLIQSMHIDATLYTESDAHPSCKVTAMKCFLLELQRISLESGDASIHDTVENLIILANNSLSSNGNVTESGCKECEELEEKNIKEFLQSFVHIVQMFINTGGGGSGHHHHHHHHGGGLNDIFEAQKIEWHE
Result string: 6.57

Query string: // fetch pKd given entry hIL-15 V49R/K11N (ligand) NWVNVISDLKNIEDLIQSMHIDATLYTESDVHPSCKVTAMKCFLLELQRISLESGDASIHDTVENLIILANNSLSSNGNVTESGCKECEELEEKNIKEFLQSFVHIVQMFINTGGGGSGHHHHHHHHGGGLNDIFEAQKIEWHE
Result string: 6.54

Query string: // fetch pKd given entry hIL-15 V49R/N4F (ligand) NWVFVISDLKKIEDLIQSMHIDATLYTESDVHPSCKVTAMKCFLLELQRISLESGDASIHDTVENLIILANNSLSSNGNVTESGCKECEELEEKNIKEFLQSFVHIVQMFINTGGGGSGHHHHHHHHGGGLNDIFEAQKIEWHE
Result string: 6.61

Query string: // fetch pKd given entry hIL-15 V49R/E64D (ligand) NWVNVISDLKKIEDLIQSMHIDATLYTESDVHPSCKVTAMKCFLLELQRISLESGDASIHDTVDNLIILANNSLSSNGNVTESGCKECEELEEKNIKEFLQSFVHIVQMFINTGGGGSGHHHHHHHHGGGLNDIFEAQKIEWHE
Result string: 6.54

Query string: // fetch pKd given entry hIL-15 V49R/H32T (ligand) NWVNVISDLKKIEDLIQSMHIDATLYTESDVTPSCKVTAMKCFLLELQRISLESGDASIHDTVENLIILANNSLSSNGNVTESGCKECEELEEKNIKEFLQSFVHIVQMFINTGGGGSGHHHHHHHHGGGLNDIFEAQKIEWHE
Result string: 6.73

Query string: // fetch pKd given entry hIL-15 V49R/N4W (ligand) NWVWVISDLKKIEDLIQSMHIDATLYTESDVHPSCKVTAMKCFLLELQRISLESGDASIHDTVENLIILANNSLSSNGNVTESGCKECEELEEKNIKEFLQSFVHIVQMFINTGGGGSGHHHHHHHHGGGLNDIFEAQKIEWHE
Result string: 6.36

Query string: // fetch pKd given entry hIL-15 V49R/I68L (ligand) NWVNVISDLKKIEDLIQSMHIDATLYTESDVHPSCKVTAMKCFLLELQRISLESGDASIHDTVENLILLANNSLSSNGNVTESGCKECEELEEKNIKEFLQSFVHIVQMFINTGGGGSGHHHHHHHHGGGLNDIFEAQKIEWHE
Result string: 6.61

Query string: // fetch pKd given entry hIL-15 V49R/H32Q (ligand) NWVNVISDLKKIEDLIQSMHIDATLYTESDVQPSCKVTAMKCFLLELQRISLESGDASIHDTVENLIILANNSLSSNGNVTESGCKECEELEEKNIKEFLQSFVHIVQMFINTGGGGSGHHHHHHHHGGGLNDIFEAQKIEWHE
Result string: 6.83

Query string: // fetch pKd given entry hIL-15 V49R/K10A (ligand) NWVNVISDLAKIEDLIQSMHIDATLYTESDVHPSCKVTAMKCFLLELQRISLESGDASIHDTVENLIILANNSLSSNGNVTESGCKECEELEEKNIKEFLQSFVHIVQMFINTGGGGSGHHHHHHHHGGGLNDIFEAQKIEWHE
Result string: 6.49

Query string: // fetch pKd given entry hIL-15 V49R/K11E (ligand) NWVNVISDLKEIEDLIQSMHIDATLYTESDVHPSCKVTAMKCFLLELQRISLESGDASIHDTVENLIILANNSLSSNGNVTESGCKECEELEEKNIKEFLQSFVHIVQMFINTGGGGSGHHHHHHHHGGGLNDIFEAQKIEWHE
Result string: 6.80

Query string: // fetch pKd given entry hIL-15 V49R/K11R (ligand) NWVNVISDLKRIEDLIQSMHIDATLYTESDVHPSCKVTAMKCFLLELQRISLESGDASIHDTVENLIILANNSLSSNGNVTESGCKECEELEEKNIKEFLQSFVHIVQMFINTGGGGSGHHHHHHHHGGGLNDIFEAQKIEWHE
Result string: 6.86
